In this section we review reported Ki values for a set of compounds.
assay_system: D(3) dopamine receptor (Homo sapiens)
Sequence (P35462 whole entry): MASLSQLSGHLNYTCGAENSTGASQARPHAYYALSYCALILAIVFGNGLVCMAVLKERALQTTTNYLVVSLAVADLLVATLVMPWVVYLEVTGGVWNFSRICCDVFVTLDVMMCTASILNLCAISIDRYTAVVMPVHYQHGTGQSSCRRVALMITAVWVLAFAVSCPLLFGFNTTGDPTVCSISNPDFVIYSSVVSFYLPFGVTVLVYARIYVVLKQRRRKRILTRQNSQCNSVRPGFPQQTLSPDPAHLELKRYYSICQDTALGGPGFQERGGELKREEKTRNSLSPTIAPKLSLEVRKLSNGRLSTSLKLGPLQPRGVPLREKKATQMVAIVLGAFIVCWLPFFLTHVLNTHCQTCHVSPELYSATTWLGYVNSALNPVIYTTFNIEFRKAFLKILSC

{"chemical_structure": "Cc1cccc(N2CCN(CCCCNC(=O)c3cc4ccccc4o3)CC2)n1", "Ki (nM)": 24}
{"chemical_structure": "Cc1cccc(N2CCN(CCCCNC(=O)c3ccccc3)CC2)n1", "Ki (nM)": 73}
{"chemical_structure": "O=C(NCCCCN1CCN(c2ncccn2)CC1)c1cc2ccccc2cn1", "Ki (nM)": 204}
{"chemical_structure": "COc1cccc(N2CCN(CCCCNC(=O)c3cc4ccccc4o3)CC2)c1", "Ki (nM)": 8.8}
{"chemical_structure": "O=C(NCCCCN1CCN(c2ccc(F)cc2)CC1)c1cc2ccccc2cn1", "Ki (nM)": 16}
{"chemical_structure": "O=C(NCCCCN1CCN(c2cnc3ccccc3c2)CC1)c1cc2ccccc2cn1", "Ki (nM)": 14}
{"chemical_structure": "COc1cccc(N2CCN(CCCCNC(=O)c3c[nH]c4ccccc34)CC2)c1", "Ki (nM)": 40}
{"chemical_structure": "Cc1cccc(N2CCN(CCCCNC(=O)[C@H]3CCc4ccccc4N3)CC2)c1", "Ki (nM)": 122}
{"chemical_structure": "O=C(NCCCCN1CCN(c2ccccc2)CC1)c1ccc2ncccc2c1", "Ki (nM)": 0.6}
